Here, each record is paired with measured inhibition data.
target: Aminopeptidase N (Plasmodium falciparum (isolate 3D7)); experiment: malaria alanyl aminopeptidase activity blockers – biochemical, fluorogenic H-Leu-NHMec substrate, 1536-well (AID 1445); details: recombinant M1AAP, H-Leu-NHMec fluorogenic kinetic assay; at 30 µM, active compounds read high unless noted;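 further: plate controls were DMSO full reaction for no effect and no enzyme background for full effect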
Screen size: about 220,000 compounds; about 910 (0.41%) were called active. What follows is part of a selection rich in actives, with near analogues and random picks from the rest. Results with a measured potency or affinity are listed apart.
# number only, unit % dropped from output

Previously resolved entries follow.
CC(=O)Nc1ccc(S(=O)(=O)Nc2nc3ccccc3nc2Nc2ccc(O)cc2)cc1: 29.4
Cc1nc(-c2cccc(NS(=O)(=O)c3ccccc3)c2)cs1: 12.7
O=S(=O)(Nc1cccc(S(=O)(=O)N2CCCCCC2)c1)c1ccccc1: -2

Prompt: Which measured inhibition belongs to `CC(=O)Nc1ccc(S(=O)(=O)Nc2nc3ccccc3nc2Nc2ccc(S(N)(=O)=O)cc2)cc1` , tested on Aminopeptidase N (Plasmodium falciparum (isolate 3D7))?
Completion: 19.6

Prompt: State its inhibition on Aminopeptidase N (Plasmodium falciparum (isolate 3D7)): `Nc1c(N(CCO)C(=O)C2CCCCC2)c(=O)[nH]c(=O)n1Cc1ccccc1`
Completion: 3.34

---

target: Aminopeptidase N (Plasmodium falciparum (isolate 3D7)) (UniProt O96935); assay: malaria alanyl aminopeptidase activity blockers – biochemical, fluorogenic H-Leu-NHMec substrate, 1536-well (AID 1445); settings: recombinant M1AAP, H-Leu-NHMec fluorogenic kinetic assay; at 30 µM, active compounds read high unless noted
Sequence (O96935 whole entry, looked up): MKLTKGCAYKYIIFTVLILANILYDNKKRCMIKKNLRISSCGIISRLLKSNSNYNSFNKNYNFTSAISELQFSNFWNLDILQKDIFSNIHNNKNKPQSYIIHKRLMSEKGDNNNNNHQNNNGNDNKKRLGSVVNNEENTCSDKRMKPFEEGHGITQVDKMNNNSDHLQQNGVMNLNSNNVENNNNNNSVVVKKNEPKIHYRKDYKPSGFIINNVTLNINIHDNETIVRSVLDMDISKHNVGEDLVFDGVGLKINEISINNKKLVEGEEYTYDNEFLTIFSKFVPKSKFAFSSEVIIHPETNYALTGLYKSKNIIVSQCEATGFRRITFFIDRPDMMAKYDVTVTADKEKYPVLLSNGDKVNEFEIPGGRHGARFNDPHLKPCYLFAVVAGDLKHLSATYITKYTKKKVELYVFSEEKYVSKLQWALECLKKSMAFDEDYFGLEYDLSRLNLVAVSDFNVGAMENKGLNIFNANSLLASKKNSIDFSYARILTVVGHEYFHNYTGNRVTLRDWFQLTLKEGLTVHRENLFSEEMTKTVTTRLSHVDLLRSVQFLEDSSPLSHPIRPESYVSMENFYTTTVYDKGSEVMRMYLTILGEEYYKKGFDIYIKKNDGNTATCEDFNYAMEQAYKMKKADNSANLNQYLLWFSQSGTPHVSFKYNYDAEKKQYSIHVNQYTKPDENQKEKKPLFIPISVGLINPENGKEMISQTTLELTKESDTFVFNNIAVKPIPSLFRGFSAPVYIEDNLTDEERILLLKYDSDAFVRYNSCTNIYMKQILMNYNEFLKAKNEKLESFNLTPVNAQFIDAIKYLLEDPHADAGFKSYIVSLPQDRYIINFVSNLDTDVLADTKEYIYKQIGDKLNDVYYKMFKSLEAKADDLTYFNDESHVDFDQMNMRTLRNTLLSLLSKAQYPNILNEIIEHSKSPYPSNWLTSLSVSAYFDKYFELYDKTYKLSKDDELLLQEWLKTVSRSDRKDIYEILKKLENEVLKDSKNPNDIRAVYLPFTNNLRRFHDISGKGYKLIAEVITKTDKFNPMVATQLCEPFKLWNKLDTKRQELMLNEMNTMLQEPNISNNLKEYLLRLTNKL
In all, about 220,000 compounds went through this assay and about 910 (0.41%) were called active. What follows is part of a selection rich in actives, with near analogues and random picks from the rest. Measured potencies and affinities stand elsewhere. Where a SMILES comes first, the peptide text is derived from it.
readoutKind: inhibition (%)
Kindly provide the numeric value in % only, without the unit symbol.

Before answering, review these 3 worked examples.
COc1ccc(Nc2nc(C(=O)N(CCO)Cc3ccccc3)cs2)cc1: 0.85
CCOC(=O)N1CCN(c2cc(=O)n(-c3ccccc3Cl)c(=O)[nH]2)CC1: -0.91
CCN(CC)CCOC(=O)c1cccc2c1-c1ccccc1C2O (stereo not given): 1.02

Prompt: Can you share its inhibition? I mean this compound: `Cc1ccc(Nc2cc(-n3nc(C)cc3C)ncn2)c(C)c1`
Completion: -27.3

Prompt: Entry under review: `COC(=O)c1ccccc1NC(=O)Cn1cnc2ccc(S(=O)(=O)N3CCC(C)CC3)cc2c1=O` . Reported inhibition?
Completion: 20.3

Prompt: inhibition lookup needed for `Cc1cc(C)n(-c2cc(-n3nc(C)cc3C)ncn2)n1` , thanks.
Completion: 7.79

Prompt: Which measured inhibition value corresponds to CC(C)[C@H](NC(=O)[C@H](CC(=O)O)NC(=O)[C@H](CCCCN)NC(=O)[C@@H](N)CCCN=C(N)N)C(=O)N[C@@H](Cc1ccc(O)cc1)C(=O)O (H-RKDVY-OH) ?
Completion: -1.63

Prompt: Would you kindly share the measured inhibition for `COc1ccccc1NS(=O)(=O)c1ccc(Cl)c(NC(=O)CN2C(=O)c3ccccc3C2=O)c1` ?
Completion: 11.8

Prompt: Given the entry O=C(O)C(CO)N=Cc1c(O)c2ccccc2oc1=O (stereo not given) , report its measured inhibition.
Completion: 20.4

Prompt: Look up inhibition: O=C(NCC(c1cccs1)N1CCOCC1)c1ccc(Cl)s1 (stereo not given)
Completion: 7.44

Prompt: Form field: reported inhibition of `COc1ccccc1/C=N/NC(=O)c1sc(C)nc1C`
Completion: 5.02

Prompt: Name the recorded inhibition for `O=C(N[C@@H](Cc1ccc(O)cc1)C(=O)O)C(c1ccccc1)c1ccccc1` .
Completion: 1.32

Prompt: Requested field: inhibition. Item: `Cc1nc2ccccc2c2oc(C(=O)NC3CC3)cc12`
Completion: 1.86

Prompt: For `Cc1ccc(Nc2cc(-n3nc(C)cc3C)ncn2)cc1` , what is its reported inhibition?
Completion: 26.7

Prompt: Please look up its inhibition: `CCOc1ccc(NC(=O)c2ccccc2OC)cc1`
Completion: 5.95

Prompt: What does the data say about its inhibition? Entry: COc1ccc2ccccc2c1C1CC(=O)N2CN(C3CCCCC3)CSC2=C1C#N (stereo not given)
Completion: 28

Prompt: What value of measured inhibition is listed for `Cc1ccc(C(=O)Nc2ccccc2C(=O)O)cc1NC(=O)COc1c(C)cccc1C` ?
Completion: 4.7

---

target: Aminopeptidase N (Plasmodium falciparum (isolate 3D7)); assay: malaria alanyl aminopeptidase activity blockers – biochemical, fluorogenic H-Leu-NHMec substrate, 1536-well (AID 1445); details: recombinant M1AAP, H-Leu-NHMec fluorogenic kinetic assay; at 30 µM, active compounds read high unless noted;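 further: plate controls were DMSO full reaction for no effect and no enzyme background for full effect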
The whole screen tested about 220,000 compounds, of which about 910 (0.41%) were called active. Only a selection was taken, and actives are over-represented in it overall. Results with a measured potency or affinity are listed apart.
inhibition by entry:
# number only, unit % dropped from output

Here are 3 molecules together with their reported answers.
CCC1=NN2C(=N)/C(=C\c3ccc(OCc4cc(=O)n5nc(CC)sc5n4)c(OC)c3)C(=O)N=C2S1: 32.8
O=S(=O)(Nc1nc2ccccc2nc1Cl)c1ccccc1: 7.23
C/C=C\C(=O)Nc1cccc(C2=NOC3(C2)C[C@@H](C(N)=O)N(C(=O)c2ccccc2)C3)c1 (stereo partly drawn): 7.63

Turning to the following molecule.
Prompt: Item `CCOc1cc(/C=C2\SC(=O)N(c3ccc(O)cc3)C2=O)ccc1O` has what recorded inhibition?
Completion: 15.2

---

Reported inhibition is given for each of the following compounds.
molecular target: Aminopeptidase N (Plasmodium falciparum (isolate 3D7)) (UniProt O96935); experiment: malaria alanyl aminopeptidase activity blockers – biochemical, fluorogenic H-Leu-NHMec substrate, 1536-well (AID 1445); settings: recombinant M1AAP, H-Leu-NHMec fluorogenic kinetic assay; at 30 µM, active compounds read high unless noted;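 further: plate controls were DMSO full reaction for no effect and no enzyme background for full effect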
Screen size: about 220,000 compounds; about 910 (0.41%) were called active. This is one part of a sample in which actives are shown more often than they occur. Potency and affinity values are given separately.
Reply numerically in %, unit not repeated.

Some entries whose results are on file:
Cc1coc2cc3oc(=O)c(Cc4ccccc4)c(C)c3cc12: 16.1
CCN1CCCC1CNC(=O)C(=O)Nc1ccccc1 (stereo unspecified): 4.81

Prompt: What inhibition value was documented for this compound, `O=C(N/N=C/c1ccccc1C(=O)O)c1ccccc1Br` ?
Completion: -4.66

Prompt: // lookup inhibition for Cc1c(NC(=O)C(C)OC(=O)/C=C/c2ccccc2)c(=O)n(-c2ccccc2)n1C (stereo unspecified)
Completion: -2.48

Prompt: // inhibition lookup, key: `COc1ccc2cc1Oc1ccc(cc1)C[C@H]1c3c(cc4c(c3Oc3cc5c(cc3OC)CCN(C)[C@@H]5C2)OCO4)CCN1C`
Completion: 2.7

Prompt: Which inhibition reading was recorded for the compound `CC1(C)CC(=O)c2sc(NS(=O)(=O)c3ccc(F)cc3)nc2C1` ?
Completion: 5.81

Prompt: Please report the recorded inhibition for `COCC(=O)NC1CCCCCC1` .
Completion: 2.18

Prompt: Query (compound): `Cc1c(CCC(=O)O)c(=O)oc2cc3occ(C(C)(C)C)c3cc12` ; field requested: inhibition
Completion: 12.5

Prompt: So what's the measured inhibition for this one? `Cc1c(CCC(=O)O)c(=O)oc2cc(O)ccc12`
Completion: 18.6

Prompt: Given the compound `Cc1c(CCC(=O)O)c(=O)oc2cc3oc4c(c3cc12)CCCC4` , what is its reported inhibition?
Completion: 8.26

Prompt: Item `COc1ccc2cc1Oc1ccc(cc1)C[C@H]1c3cc(c(OC)cc3CCN1C)Oc1c(OC)c(OC)cc3c1[C@H](C2)N(C)CC3` has what recorded inhibition?
Completion: 0.59

---

target: Aminopeptidase N (Plasmodium falciparum (isolate 3D7)); experiment: malaria alanyl aminopeptidase activity blockers – biochemical, fluorogenic H-Leu-NHMec substrate, 1536-well (AID 1445); details: recombinant M1AAP, H-Leu-NHMec fluorogenic kinetic assay; at 30 µM;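 further: plate controls were DMSO full reaction for no effect and no enzyme background for full effect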
About 910 (0.41%) of roughly 220,000 compounds were called active.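 The calls were made as follows: active = primary inhibition above the hit cutoff, then over 50% inhibition at one or more dose response concentrations (cut at about 23% in these data, passing the limit was not always enough); inconclusive = conflicting primary data, or primary hits not chosen for dose response; inactive = low primary inhibition, or under 50% at every dose.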 The sample holds actives, similar compounds and a random draw of the others, so the mix is not that of the screen. Results with a measured potency or affinity are listed apart.
Pick one: active, inactive

Worked set:
Cc1ccc(S(=O)(=O)N(C)C)cc1NC(=O)c1sccc1Cl: inactive
Cc1ccc(CNC(=O)CN(CCc2ccccc2)S(C)(=O)=O)cc1: inactive
O=C(NN=C1CCN(Cc2ccccc2)CC1)c1ccccc1O: inactive
CCc1ccc(S(=O)(=O)Nc2ccc(-c3nc4cccnc4s3)cc2)s1: active
COC(=O)c1c(C(=O)OC)c(-c2cccc(Cl)c2)n2c1CS(=O)C2 (stereo unspecified): inactive

Prompt: Could you please tell me the result logged for `N#C/C(=N\Nc1ccccc1Cl)C(=O)c1ccccc1` in this assay?
Completion: inactive

Prompt: Recorded call for `O=C(NNC(=O)c1ccccc1O)c1ccco1` ?
Completion: inactive

Prompt: Record request — test call for `O=S(=O)(Nc1nc2ccc(S(=O)(=O)N3CCCC3)cc2s1)c1ccc(F)cc1`
Completion: inactive

Prompt: Recorded test call requested for O=C(Nc1cc(C(F)(F)F)ccc1Cl)C(Sc1nnc(-c2cccs2)o1)c1ccccc1 (stereo unspecified)
Completion: inactive

Prompt: So what was the verdict on `COc1ccc(Cl)cc1NC(=O)CNc1ccccc1CN(C)C1CCCCC1` in this test?
Completion: inactive

Prompt: Check the results log: what was the call for `CC(C)(CC(=O)O)Cc1nc(-c2ccc(Cl)cc2)no1` ?
Completion: inactive

Provenance of the data: PubChem BioAssay AID1445
